Attribution: PubChem BioAssay (NCATS)

- Test Name: Drug repurposing screens with cells derived from glioblastoma tumor samples (AID 1345199); further: nearly all actives have a fitted effect of over 40% in size; on activity, negative = cell killing: on the % scale 0 is the no-effect control and ±100 the full control effect
- Condition Info: GBM patient neurospheres viability, ATP luminescence, 48 h; at 46 µM (top of the series); tumour line A
Inconclusive results are not listed.
Measurement Kind: activity, negative = cell killing (%)
The answer is to be given in %; state only the numeric part.

Examples with their reported activity, negative = cell killing follow.
CC(CNC(=O)c1cccnc1)NC(=O)c1cccnc1 (stereo not given) | -56.9
O=[n+]1ccn([O-])c2ccccc21 | -22.5
NC[C@@H]1CC[C@@H](N)[C@@H](O[C@H]2[C@H](O)[C@@H](O[C@H]3O[C@H](CO)[C@@H](O)[C@H](N)[C@H]3O)[C@H](N)C[C@@H]2N)O1 | -27.2
C[C@@](Cc1ccc(O)c(O)c1)(NN)C(=O)O | -39.3
CCN(CC)CCOC[C@H]1O[C@@H](O)[C@H](OCCN(CC)CC)[C@@H](O)[C@@H]1O | -26.4
Nc1nc(/C(=C/CC(=O)O)C(=O)N[C@@H]2C(=O)N3C(C(=O)O)=CCS[C@H]23)cs1 | 12.2
Nc1nc(=O)n([C@@H]2CS[C@H](CO)O2)cc1F | -12.2
C[N+]1(C)[C@@H]2CC(OC(=O)C(O)(c3cccs3)c3cccs3)C[C@H]1[C@@H]1O[C@@H]12 (stereo not given in full) | -24.6

input: Note activity, negative = cell killing for the molecule shown: NS(=O)(=O)c1cc2c(cc1Cl)NC(Cc1ccccc1)NS2(=O)=O (stereo not given)
output: -28.7

input: Note activity, negative = cell killing for the molecule shown: `c1ccc2ccccc2c1`
output: -4.53

----------
- Test Name: P-glycoprotein substrates identified in KB-8-5-11 adenocarcinoma cell line, qHTS therapeutic library screen (AID 1346987); further: on the % scale 0 is the no-effect control and ±100 the full control effect; nearly all actives have a fitted effect of over 65% in size
- Condition Info: KB-8-5-11 (P-gp overexpressing) viability, CellTiter-Glo, 72 h; series mostly up to 44.5 µM
Inconclusive results are not listed. Calls of active or inactive are those of the source. Calls follow the shape of the dose curve; as a rule, active = well fitted inhibition curve with a large enough effect; inconclusive = small, poorly fitted or top-dose-only effect; inactive = flat fitted curve, though single readings scatter.
Measurement Kind: outcome

O=C(NCCNCC(O)COc1ccc(O)cc1)N1CCOCC1 (stereo not given) | inactive
CNC(C)CCC=C(C)C (stereo not given) | inactive
Cc1nc(NS(=O)(=O)c2ccc(N)cc2)nc(C)c1Br | inactive
C=CC(C)(O)CC/C=C(\C)CCC=C(C)C (stereo not given) | inactive

input: Note outcome for the compound shown: `NC(=O)C1c2ccccc2CCc2ccccc21`
output: inactive

input: Note outcome for the compound shown: O=C(O)CN(CC(=O)O)CC1=CC2C(=CC1=O)Oc1cc(O)c(CN(CC(=O)O)CC(=O)O)cc1C21OC(=O)c2ccccc21 (stereo not given)
output: inactive

input: Note outcome for the compound shown: Cc1cccc(C)c1NC(=O)C1CCCCN1C (stereo not given)
output: inactive

input: Note outcome for the compound shown: `Cc1c(Cl)cccc1Nc1ncccc1C(=O)O`
output: inactive

input: Note outcome for the compound shown: `CC1(C)[C@@H]2CC[C@@]1(C)[C@H](OC(=O)CSC#N)C2`
output: inactive

input: Note outcome for the compound shown: `Cc1cc2nc3c(=O)[nH]c(=O)nc-3n(C[C@H](O)[C@H](O)[C@H](O)COP(=O)(O)OP(=O)(O)OC[C@H]3O[C@@H](n4cnc5c(N)ncnc54)[C@H](O)[C@@H]3O)c2cc1C`
output: inactive

----------
- Tested on: C2A
- Test Name: qHTS profiling for inhibitors of Plasmodium falciparum proliferation (AID 504749); further: nearly all actives have a fitted effect of over 60% in size
- Condition Info: P. falciparum in erythrocytes, SYBR Green DNA, 72 h; series mostly up to 28.7 µM
Results filed as inconclusive are left out. The source made the active and inactive calls. Calls come from the whole dose curve; as a rule, active = well fitted inhibition curve with a large enough effect; inconclusive = small, poorly fitted or top-dose-only effect; inactive = flat fitted curve, though single readings scatter.
In this exercise, the only acceptable responses are TRUE = active, FALSE = inactive

CC1CC(O)CC(C)(C)C1 (centres undefined) | FALSE
CCCc1nc(C(C)(C)O)c(C(=O)OCc2oc(=O)oc2C)n1Cc1ccc(-c2ccccc2-c2nn[nH]n2)cc1 | FALSE
C=CC(C)(O)CC/C=C(\C)CCC=C(C)C (centres undefined) | FALSE
CN=C1C=CC(=C(c2ccc(N(C)C)cc2)c2ccc(N(C)C)cc2)C=C1 | TRUE

input: Could you please tell me the result logged for `N=C(N)n1cccn1` in this assay?
output: FALSE

input: Could you please tell me the result logged for `CCCCC` in this assay?
output: FALSE

input: Could you please tell me the result logged for `CN1CCc2c(c3ccccc3n2Cc2ccccc2)C1` in this assay?
output: FALSE

input: Could you please tell me the result logged for `CC(=O)Nc1ccc(OC(=O)c2ccccc2O)cc1` in this assay?
output: FALSE

input: Could you please tell me the result logged for `CC(=O)[C@H]1CC[C@H]2[C@@H]3C=CC4=CC(=O)CC[C@@]4(C)[C@H]3CC[C@]12C` in this assay?
output: FALSE

input: Could you please tell me the result logged for `O=C(OCc1ccccc1)c1ccc(O)cc1` in this assay?
output: FALSE

input: Could you please tell me the result logged for `CCN(CC)C(=S)S` in this assay?
output: FALSE

----------
- Target Or System: Voltage-gated inwardly rectifying potassium channel KCNH2 (Homo sapiens) (UniProt Q12809)
- Sequence (Q12809 whole entry, looked up): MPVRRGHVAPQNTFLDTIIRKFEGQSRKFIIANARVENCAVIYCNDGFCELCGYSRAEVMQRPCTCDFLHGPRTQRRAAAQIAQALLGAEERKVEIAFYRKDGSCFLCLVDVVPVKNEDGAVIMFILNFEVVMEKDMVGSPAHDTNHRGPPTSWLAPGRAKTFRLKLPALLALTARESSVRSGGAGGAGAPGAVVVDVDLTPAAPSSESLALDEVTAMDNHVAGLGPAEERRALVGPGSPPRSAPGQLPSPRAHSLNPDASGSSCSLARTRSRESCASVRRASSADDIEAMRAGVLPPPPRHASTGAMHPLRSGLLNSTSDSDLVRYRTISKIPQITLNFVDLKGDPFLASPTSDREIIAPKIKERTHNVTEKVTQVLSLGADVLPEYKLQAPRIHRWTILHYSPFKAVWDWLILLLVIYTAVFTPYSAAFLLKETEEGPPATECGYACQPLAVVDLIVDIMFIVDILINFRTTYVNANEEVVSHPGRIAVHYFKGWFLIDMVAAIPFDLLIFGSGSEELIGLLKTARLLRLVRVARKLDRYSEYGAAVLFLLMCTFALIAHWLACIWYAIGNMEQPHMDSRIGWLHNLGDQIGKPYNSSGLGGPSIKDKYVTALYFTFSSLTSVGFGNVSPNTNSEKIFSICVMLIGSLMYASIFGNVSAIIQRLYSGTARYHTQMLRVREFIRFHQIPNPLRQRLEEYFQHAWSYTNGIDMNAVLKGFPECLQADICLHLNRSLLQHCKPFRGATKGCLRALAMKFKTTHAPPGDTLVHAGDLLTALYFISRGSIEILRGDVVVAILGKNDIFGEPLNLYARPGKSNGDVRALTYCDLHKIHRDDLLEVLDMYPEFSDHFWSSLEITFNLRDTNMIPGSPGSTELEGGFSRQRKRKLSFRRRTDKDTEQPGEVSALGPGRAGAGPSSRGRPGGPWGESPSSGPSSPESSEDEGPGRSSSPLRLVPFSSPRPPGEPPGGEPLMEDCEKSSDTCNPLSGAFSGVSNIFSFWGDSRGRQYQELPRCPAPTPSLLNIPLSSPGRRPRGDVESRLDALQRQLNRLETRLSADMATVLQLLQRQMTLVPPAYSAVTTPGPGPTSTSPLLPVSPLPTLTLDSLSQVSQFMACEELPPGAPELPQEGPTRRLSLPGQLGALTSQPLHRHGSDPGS
- Test Name: qHTS Assay for Small Molecule Inhibitors of the Human hERG Channel Activity (AID 588834);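 further: U2OS cells transduced with hERG by BacMam; top concentration of the series differs between compounds; on the % scale 0 is the no-effect control and ±100 the full control effect; lower thallium flux fluorescence means stronger hERG block; nearly all actives have a fitted effect of over 50% in size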
- Condition Info: U2OS BacMam hERG, FluxOR thallium flux fluorescence; series mostly up to 46.1 µM
Results filed as inconclusive are left out. Calls of active or inactive are those of the source. Calls follow the shape of the dose curve; as a rule, active = well fitted inhibition curve with a large enough effect; inconclusive = small, poorly fitted or top-dose-only effect; inactive = flat fitted curve, though single readings scatter.
In this exercise, the only acceptable responses are Yes (active), No (inactive)

Solved entries (count: 2):
S=C=Nc1ccc(N=C=S)cc1 | No
CC(C)(CO)[C@@H](O)C(=O)NCCCC(=O)O | No

Okay, now this compound:
input: Could you please tell me the result logged for `COc1ccc(/C=C/C(=O)O)cc1` in this assay?
output: No

----------
- Test Name: qHTS assay for small molecule agonists of the antioxidant response element (ARE) signaling pathway (AID 651741); further: % of control where 0% means no effect
- Condition Info: HepG2 ARE-bla reporter, beta-lactamase FRET ratio, 16 h; series mostly up to 96 µM
Inconclusive results are not listed. Activity calls are given as the source filed them. Calls follow the shape of the dose curve; as a rule, active = well fitted activation curve with a large enough effect in the signal ratio; inconclusive = small, poorly fitted or top-dose-only effect, or effect the other way, or a change in a side signal; inactive = flat fitted curve, though single readings scatter; the % refers to the signal ratio.
In this exercise, the only acceptable responses are active, inactive

input: Could you please tell me the result logged for `O=P(O)(O)O` in this assay?
output: inactive

input: Could you please tell me the result logged for CC1=CCC2CC1C2(C)C (stereo unspecified) in this assay?
output: inactive

input: Could you please tell me the result logged for `OC[C@H]1O[C@@H]2O[C@H]3[C@H](O)[C@@H](O)[C@@H](O[C@H]4[C@H](O)[C@@H](O)[C@@H](O[C@H]5[C@H](O)[C@@H](O)[C@@H](O[C@H]6[C@H](O)[C@@H](O)[C@@H](O[C@H]7[C@H](O)[C@@H](O)[C@@H](O[C@H]1[C@H](O)[C@H]2O)O[C@@H]7CO)O[C@@H]6CO)O[C@@H]5CO)O[C@@H]4CO)O[C@@H]3CO` in this assay?
output: inactive

input: Could you please tell me the result logged for `Cc1ccc(S(=O)(=O)NCl)cc1` in this assay?
output: inactive

input: Could you please tell me the result logged for `CC1=CC(=O)NS(=O)(=O)O1` in this assay?
output: inactive

----------
- System: astro (control astrocytes)
- Test Name: Drug repurposing screens with cells derived from glioblastoma tumor samples (AID 1345199); further: nearly all actives have a fitted effect of over 40% in size
- Condition Info: viability, ATP luminescence, 48 h; series mostly up to 45.9 µM
Results filed as inconclusive are left out. Calls of active or inactive are those of the source. The call rests on the fitted dose curve; in most records, active means well fitted inhibition curve with a large enough effect; inconclusive means small, poorly fitted or top-dose-only effect; inactive means flat fitted curve, though single readings scatter.
In this exercise, the only acceptable responses are yes for active, no for inactive

Solved entries (count: 6):
C[N+]1(C)[C@@H]2CC(OC(=O)C(O)(c3cccs3)c3cccs3)C[C@H]1[C@@H]1O[C@@H]12 (stereo partly specified) | no
O=C1c2ccccc2C(=O)C1c1ccc(Cl)cc1 | no
C=C1[C@H](CO)[C@@H](O)C[C@@H]1n1cnc2c(=O)[nH]c(N)nc21 | no
Cn1c(=O)c2c(ncn2CCOC(=O)C(C)(C)Oc2ccc(Cl)cc2)n(C)c1=O | no
N[C@H](CC(=O)O)C(=O)O | no
CN(Cc1ccccc1)Cc1ccccc1 | no

input: Could you please tell me the result logged for `CC(C)=CCC/C(C)=C/C=C/C(C)=C/C=C/C(C)=C/C=C/C=C(C)/C=C/C=C(C)/C=C/C=C(\C)CCC=C(C)C` in this assay?
output: no

input: Could you please tell me the result logged for `CC(=O)NCCCS(=O)(=O)O` in this assay?
output: no

input: Could you please tell me the result logged for `O=C(O)/C=C/c1ccccc1` in this assay?
output: no

input: Could you please tell me the result logged for `CCOc1ccc(S(=O)(=O)O)c2cccnc12` in this assay?
output: no

input: Could you please tell me the result logged for `CCc1cn([C@H]2C[C@H](O)[C@@H](CO)O2)c(=O)[nH]c1=O` in this assay?
output: no

input: Could you please tell me the result logged for `COC(=O)[C@H]1[C@H]2C[C@@H]3c4[nH]c5cc(OC)ccc5c4CCN3C[C@H]2C[C@H](OC)[C@@H]1OC` in this assay?
output: no

input: Could you please tell me the result logged for `CC(C)(C)CC(C)(C)c1ccc(OCCO)cc1` in this assay?
output: yes

input: Could you please tell me the result logged for `COc1ccc(C(=O)CCC(=O)O)c2ccccc12` in this assay?
output: no
